// provenance: patent US7998937B2

System: rotavirus (strain: OSU)
Test: Inhibitory activity against rotavirus in MA104 cells (SRB)
Type: cell-based
Details: 10 μg/mL, rotavirus OSU in MA104 cells, 48 hours, repeated 2 times; read-out: Inhibitory activity (%) (Mean ± S.D.)
Provide the recorded inhibition at 10 µg/mL for the entries that follow.
Numbers only, in %.

Example molecules with recorded inhibition at 10 µg/mL:
>  <smiles str>
Nc1nc2c(ncn2COCCO)c(=O)[nH]1

>  <endpoint result>
0.78

$$$$
>  <smiles str>
CC(=O)N[C@H]1[C@H]([C@H](O)[C@H](O)CO)OC(C(=O)O)=C[C@@H]1N=C(N)N

>  <endpoint result>
0.5

$$$$

Take each entry in turn and give its inhibition at 10 µg/mL.
1. NC(=O)c1ncn([C@@H]2O[C@H](CO)[C@@H](O)[C@H]2O)n1
2. Nc1ccn([C@@H]2CS[C@H](CO)O2)c(=O)n1

1. 82.3
2. 0.02

---

Test: in vitro
Settings: African green monkey
For each record, write down the corresponding CC50 at 48 h.
Numbers only, in µg/mL.

>  <smiles str>
O=c1cc(-c2ccc(O)cc2)oc2cc(O)cc(O)c12

>  <CC50 at 48 h / µg/mL>
50

$$$$

Note: attention shifts to another entry.
Which value of CC50 at 48 h has been reported for O=c1c(O)c(-c2ccc(O)c(O)c2)oc2cc(O)cc(O)c12 in the records? 365
